Assay: Binding affinity against delta opioid receptor […]
Set-up: species or system Mus musculus
REPORTED PROPERTY: log10(Ki) (log10 of the value in nM)

* CCNC(=O)c1ccc(/C(Br)=C2\C[C@H]3CC[C@@H](C2)N3Cc2ccoc2)cc1 | -0.52
* CCNC(=O)c1ccc(C(=C2CC3CCC(C2)N3Cc2ccoc2)c2ccc(S(C)(=O)=O)cc2)cc1 | 0.30
* CCNC(=O)c1ccc(C(=C2CC3CCC(C2)N3Cc2ccoc2)c2cccc(N)c2)cc1 | 0.30
* CCNC(=O)c1ccc(C(=C2CC3CCC(C2)N3Cc2ccsc2)c2ccc3c(c2)OCO3)cc1 | 0.49
* C=C(C)CCN1C2CCC1CC(=C(c1ccc(C(=O)NCC)cc1)c1cccc(C(C)=O)c1)C2 | 0.26
* CCNC(=O)c1ccc(C(=C2CC3CCC(C2)N3Cc2ccoc2)c2cccc(C(=O)O)c2)cc1 | 0.54
* CCNC(=O)c1ccc(/C(C#N)=C2/C[C@H]3CC[C@@H](C2)N3Cc2ccoc2)cc1 | 0.04
* CCNC(=O)c1ccc(/C(=C2\C[C@H]3CC[C@@H](C2)N3Cc2ccsc2)c2cccc(-c3nn[nH]n3)c2)cc1 | -0.15
* CCNC(=O)c1ccc(C(=C2CC3CCC(C2)N3Cc2ccoc2)c2cccnc2)cc1 | -0.40
* CCNC(=O)c1ccc(C(=C2CC3CCC(C2)N3Cc2cccc(C(=O)O)c2)c2ccccc2)cc1 | 2.45
* CCNC(=O)c1ccc(C(=C2CC3CCC(C2)N3Cc2c[nH]cn2)c2cccc(NC(C)=O)c2)cc1 | 1.28
* CCNC(=O)c1ccc(C(=C2CC3CCC(C2)N3CCc2ccccc2)c2ccccc2)cc1 | -0.62
* CCNC(=O)c1ccc(/C(=C2/C[C@H]3CC[C@@H](C2)N3Cc2ccsc2)c2cccc(-c3nn[nH]n3)c2)cc1 | 1.49
* CCNC(=O)c1ccc(C(=C2CC3CCC(C2)N3Cc2ccoc2)c2cccc(CO)c2)cc1 | -0.82
* CCNC(=O)c1ccc(C(=C2CC3CCC(C2)N3Cc2ccoc2)c2cc(C(=O)O)cc([N+](=O)[O-])c2)cc1 | -0.03
* CCNC(=O)c1ccc(C(=C2CC3CCC(C2)N3Cc2ccoc2)c2cc(N)cc(C(=O)O)c2)cc1 | 1.75
* CCNC(=O)c1ccc(/C(C#N)=C2\C[C@H]3CC[C@@H](C2)N3Cc2ccoc2)cc1 | -0.05
* CCNC(=O)c1ccc(C(=C2CC3CCC(C2)N3Cc2ccoc2)c2c(C)cccc2C)cc1 | 0.11
* CCNC(=O)c1ccc(C(=C2CC3CCC(C2)N3Cc2ccoc2)c2ccc(O)c(OC)c2)cc1 | -0.52
* CCNC(=O)c1ccc(C(=C2CC3CCC(C2)N3Cc2ccccn2)c2cccc(NC(C)=O)c2)cc1 | 1.45
* CCNC(=O)c1ccc(C(=C2CC3CCC(C2)N3Cc2ccoc2)c2cnccn2)cc1 | 0.53
* CCNC(=O)c1ccc(/C(=C2\C[C@H]3CC[C@@H](C2)N3Cc2ccccn2)c2ccc(C(=O)N(C)C)cc2)cc1 | -0.70
* CCNC(=O)c1ccc(C(=C2CC3CCC(C2)N3Cc2ccoc2)c2cccc(C(C)=O)c2)cc1 | -0.40
* CCNC(=O)c1ccc(C(=C2CC3CCC(C2)N3Cc2ccoc2)c2c(C)noc2C)cc1 | 0.08
* CCN(CC)C(=O)c1ccc(C(=C2CC3CCC(C2)N3CCc2ccccc2)c2ccccc2)cc1 | 1.67
* CCNC(=O)c1ccc(C(=C2CC3CCC(C2)N3Cc2ccoc2)c2nnn[nH]2)cc1 | 2.32
* CCNC(=O)c1ccc(C(=C2CC3CCC(C2)N3Cc2cccnc2)c2ccccc2)cc1 | 1.85
* CCNC(=O)c1ccc(C(=C2CC3CCC(C2)N3Cc2ccoc2)c2ccc(C(=O)O)cc2)cc1 | 0.72
* CCNC(=O)c1ccc(/C(=C2/C[C@H]3CC[C@@H](C2)N3Cc2ccsc2)c2ccc(CO)cc2)cc1 | 1.23
* CCNC(=O)c1ccc(C(=C2CC3CCC(C2)N3Cc2ccoc2)c2ccc(CO)cc2)cc1 | 0.43
* CCNC(=O)c1ccc(/C(Br)=C2/C[C@H]3CC[C@@H](C2)N3Cc2ccoc2)cc1 | 1.46
* CCNC(=O)c1ccc(C(=C2CC3CCC(C2)N3Cc2ccoc2)c2ccncc2)cc1 | 0.78
* CCNC(=O)c1ccc(C(=C2CC3CCC(C2)N3Cc2ccoc2)c2cccc(-c3nn[nH]n3)c2)cc1 | -0.14
* CCNC(=O)c1ccc(C(=C2CC3CCC(C2)N3Cc2ccoc2)c2ccc(N(C)C)cc2)cc1 | 0.94
* C=C(C)CCN1C2CCC1CC(=C(c1ccc(C(=O)NCC)cc1)c1ccco1)C2 | 0.75

----------
Target: UniProt:P42866
Test: Ratio of binding affinity against mu to that of delta opioid receptor
REPORTED PROPERTY: Ratio

• CCNC(=O)c1ccc(C(=C2CC3CCC(C2)N3Cc2ccoc2)c2cccc(NC(C)=O)c2)cc1 = 2.4
• C=C(C)CCN1C2CCC1CC(=C(c1ccc(C(=O)NCC)cc1)c1cccc(C(C)=O)c1)C2 = 1.1
• CCNC(=O)c1ccc(C(=C2CC3CCC(C2)N3Cc2ccccn2)c2cccc(NC(C)=O)c2)cc1 = 0.13
• CCNC(=O)c1ccc(C(Br)=C2CC3CCC(C2)N3Cc2ccoc2)cc1 = 2.4
• CCNC(=O)c1ccc(C(=C2CC3CCC(C2)N3Cc2ccoc2)c2ccc(O)c(OC)c2)cc1 = 2
• CCNC(=O)c1ccc(C(=C2CC3CCC(C2)N3Cc2ccoc2)c2cccc(F)c2)cc1 = 9.3

----------
pKi: −log10 of the molar value.
Assay system Mu-type opioid receptor (Mus musculus, UniProt P42866); read-out recorded as pKi.
REPORTED PROPERTY: pKi

* CCN(CC)C(=O)c1ccc(C(=C2CC3CCC(C2)N3CCc2ccccc2)c2ccccc2)cc1 | 9.59
* CCNC(=O)c1ccc(C(=C2CC3CCC(C2)N3CCc2ccccc2)c2ccccc2)cc1 | 7.14
* CCNC(=O)c1ccc(C(=C2CC3CCC(C2)N3Cc2cccc(C(=O)O)c2)c2ccccc2)cc1 | 6.32
* CCNC(=O)c1ccc(C(=C2CC3CCC(C2)N3Cc2ccoc2)c2cnccn2)cc1 | 8.00
* CCNC(=O)c1ccc(/C(=C2\C[C@H]3CC[C@@H](C2)N3Cc2ccsc2)c2ccc(CO)cc2)cc1 | 7.77
* CCNC(=O)c1ccc(C(=C2CC3CCC(C2)N3Cc2ccoc2)c2ccc([N+](=O)[O-])cc2)cc1 | 8.82
* CCNC(=O)c1ccc(C(=C2CC3CCC(C2)N3Cc2ccccn2)c2cccc(NC(C)=O)c2)cc1 | 8.44
* CCNC(=O)c1ccc(/C(C#N)=C2\C[C@H]3CC[C@@H](C2)N3Cc2ccoc2)cc1 | 8.59
* CCNC(=O)c1ccc(/C(C#N)=C2/C[C@H]3CC[C@@H](C2)N3Cc2ccoc2)cc1 | 8.64

----------
Molecular target: Mu-type opioid receptor (Mus musculus) (UniProt P42866)
Sequence (P42866 whole entry): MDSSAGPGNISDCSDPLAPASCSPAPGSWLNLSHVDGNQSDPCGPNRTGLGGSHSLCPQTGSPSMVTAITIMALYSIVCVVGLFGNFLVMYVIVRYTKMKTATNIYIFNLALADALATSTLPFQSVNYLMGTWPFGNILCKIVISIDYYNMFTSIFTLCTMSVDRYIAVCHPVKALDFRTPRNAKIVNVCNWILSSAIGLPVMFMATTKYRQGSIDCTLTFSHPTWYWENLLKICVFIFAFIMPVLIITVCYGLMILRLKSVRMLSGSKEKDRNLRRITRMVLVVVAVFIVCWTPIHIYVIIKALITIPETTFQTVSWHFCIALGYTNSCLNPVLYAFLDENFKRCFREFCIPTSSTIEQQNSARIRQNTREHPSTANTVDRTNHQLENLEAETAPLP
Experiment: Ratio of binding affinity against mu to that of delta opioid receptor
Using Ratio as the sorting value, the categories are bottom = under 2, middle = from 2 up to 6, top = 6 and over

- CCNC(=O)c1ccc(C(=C2CC3CCC(C2)N3Cc2cccnc2)c2ccccc2)cc1: bottom
- CCNC(=O)c1ccc(C(=C2CC3CCC(C2)N3Cc2ccoc2)c2cc(C(=O)O)cc([N+](=O)[O-])c2)cc1: top
- CCNC(=O)c1ccc(C(=C2CC3CCC(C2)N3Cc2ccoc2)c2cccc(CO)c2)cc1: middle
- CCNC(=O)c1ccc(C(=C2CC3CCC(C2)N3Cc2ccoc2)c2ccc([N+](=O)[O-])cc2)cc1: top
- CCNC(=O)c1ccc(C(=C2CC3CCC(C2)N3Cc2ccoc2)c2ccc(CO)cc2)cc1: top
- CCNC(=O)c1ccc(C(=C2CC3CCC(C2)N3Cc2ccoc2)c2ccc(S(C)(=O)=O)cc2)cc1: bottom
- CCNC(=O)c1ccc(C(=C2CC3CCC(C2)N3Cc2ccoc2)c2ccc(NC(C)=O)cc2)cc1: middle
- CCNC(=O)c1ccc(C=C2CC3CCC(C2)N3Cc2ccoc2)cc1: bottom

----------
Experiment: Binding affinity against delta opioid receptor […]
Design: species or system Mus musculus
REPORTED PROPERTY: log10(Ki) (log10 of the value in nM)

- C=C(C)CCN1[C@@H]2CC[C@H]1C/C(=C(\c1ccc(C(=O)NCC)cc1)c1cccc(C(C)=O)c1)C2: 1.45
- CCNC(=O)c1ccc(C(=C2CC3CCC(C2)N3Cc2ccoc2)c2cccc(CN)c2)cc1: 1.30
- C=C(C)CCN1[C@@H]2CC[C@H]1C/C(=C(/c1ccc(C(=O)NCC)cc1)c1cccc(C(=O)O)c1)C2: 0.34
- CCNC(=O)c1ccc(C(=C2CC3CCC(C2)N3Cc2ccoc2)c2ccc([N+](=O)[O-])cc2)cc1: -0.64
- CCNC(=O)c1ccc(C(=C2CC3CCC(C2)N3Cc2ccoc2)c2cccc(CCC(=O)O)c2)cc1: -0.11
- CCNC(=O)c1ccc(/C(=C2/C[C@H]3CC[C@@H](C2)N3Cc2ccccn2)c2ccc(C(=O)N(C)C)cc2)cc1: -0.30
- CCNC(=O)c1ccc(C(=C2CC3CCC(C2)N3Cc2ccoc2)c2cccc(C#N)c2)cc1: -0.22
- CCNC(=O)c1ccc(C=C2CC3CCC(C2)N3Cc2ccoc2)cc1: 1.97

Each recorded value in this set is attributed to ChEMBL document CHEMBL1138013.
